Tested on: PC-3 prostate
Experiment: NCI tumour cell line growth inhibition, 48 h
Endpoint Name: TGI

Entry Cc1cc(Cc2cc(C)c(NC(=O)C(=O)C3CCC4=C(SC5C=CC=CC5N4)C3=O)c(C(C)C)c2)cc(C(C)C)c1NC(=O)C(=O)C1CCC2=C(SC3C=CC=CC3N2)C1=O (configuration not stated) , TGI reported as 90.9 µM

# molecule O=C1CSC(c2ccccc2[N+](=O)[O-])N1c1ccc(-c2ccc(-n3c(-c4ccccc4)nc4ccccc4c3=O)cc2)cc1 (configuration not stated) ; its TGI = > 100 µM

# TGI (molecule: `C[n+]1c2cc(N)ccc2cc2ccc(N)cc21` ) is 5.8 µM [middle of 4 runs]

Summary for this molecule, `CC(C)C(=O)Nc1cc(C(F)(F)F)ccc1[N+](=O)[O-]` : TGI is > 100 µM

Kindly note the recorded TGI for CC(=O)Nc1c(C)cc2c(nc3n2CCC3OC(C)=O)c1[N+](=O)[O-] (configuration not stated) , which is > 100 µM

Query `Cc1cc(N2CCOCC2)nc(N[C@@H]2CCC[C@H](Nc3ccnc4cc(Cl)ccc34)C2)n1` yields TGI of 6.01 µM

Item: `CC(=O)OC(C)(C)/C(C)=C/C(=O)O[C@H]1C(=O)O[C@@H]2C[C@H]3[C@H](C)C(=O)C(O[C@@H]4O[C@H](CO)[C@@H](O)[C@H](O)[C@H]4O)=C[C@]3(C)[C@H]3[C@@H](O)[C@H](O)[C@@]4(C(=O)O)OC[C@]32[C@@H]14` | TGI: > 100 µM

* * *

Tested on: COLO 205 colon
Assay: NCI tumour cell line growth inhibition, 48 h
Endpoint Name: GI50

The value of GI50 measured for the molecule `CCOC(=O)c1cc2c(cc1Cl)SC(N(c1ccc(OC)cc1)S(=O)(=O)c1ccc(Cl)cc1)=NS2(=O)=O` turned out to be 18.4 µM

Briefly, GI50 measured for `CC(=O)OC(C)(C)/C(C)=C/C(=O)O[C@H]1C(=O)O[C@@H]2C[C@H]3[C@H](C)C(=O)C(O[C@@H]4O[C@H](CO)[C@@H](O)[C@H](O)[C@H]4O)=C[C@]3(C)[C@H]3[C@@H](O)[C@H](O)[C@@]4(C(=O)O)OC[C@]32[C@@H]14` : > 100 µM

Short answer for `COCc1cc(C(=O)Nc2cc([C@H]3CC[C@@H](OC(=O)NC(C)C)C3)[nH]n2)n(C)n1` : GI50 was 3.15 µM

Record summary for `CN(Cc1ccccc1)c1ccc(CO)c(Cl)c1` : reported GI50 = 7.19 µM

The measured GI50 associated with CCC[CH2][Sn]1([CH2]CCC)[O]CC(CN(C)Cc2ccccc2)[O]1 (configuration not stated) reads 5.31 µM

# GI50 (molecule: CCN(CC)c1ccc(C(O)C2=CC(=O)c3ccccc3C2=O)cc1 (configuration not stated) ) is 1.58 µM

# molecule `CCC(=C/[C@H](C)C/C=C/C(C)=C/[C@@H](C)C(=O)[C@@H](C)[C@H](O)[C@@H](C)CC)/C=C/[C@@H]1OC(=O)C=C[C@H]1C` ; its GI50 = < 0.01 µM

* * *

Tested on: M14 melanoma
Experiment: NCI tumour cell line growth inhibition, 48 h; in the data active = GI50 below about 0.43 µM; inactive = the rest
// classify into yes (active), no (inactive)

## Task Tell me the assay call for `CCN(CC)CCCNCc1cc(-c2ccccc2)nc2ccccc12` please.
## Result no

## Task Hi, sorry to bother you, what did the test record for `O=C(Cc1ccc(F)c(F)c1)Nc1cc(C2(C(F)(F)F)CC2)nn1Cc1ccccc1` ?
## Result no

## Task Please let me know the test result on file for C=C1CCC2C3(C)COC(c4ccccc4)OC3CCC2(C)C1/C=C/C1=CCOC1=O (centres undefined) .
## Result no

## Task Assay result, entry `COCc1cc(C(=O)Nc2cc([C@H]3CC[C@@H](OC(=O)NC(C)C)C3)[nH]n2)n(C)n1` — outcome?
## Result no

## Task Test call for this compound, please: `O=C(COc1cc(O)c2c(=O)cc(-c3ccccc3)oc2c1)Nc1ccccc1C(F)(F)F`
## Result no

## Task What was the test verdict on `c1ccc(CN2COc3c(ccc4c3OCN(Cc3ccccc3)C4)C2)cc1` ?
## Result no

## Task Would you mind telling me which call this test gave `C#Cc1c(/C=C/C(=O)OCC)ccc2ccccc12` ?
## Result no

## Task Please indicate how the test categorized `CS(=O)(=O)CCc1cccc(C(=O)c2cnn(-c3ccc(F)cc3)c2N)c1` .
## Result no

## Task What classification did O=C(c1ccccc1)C1OC1c1ccc([N+](=O)[O-])cc1 (centres undefined) end up with in this test?
## Result no

## Task Please let me know the test result on file for CCN(CC)CC(O)CNc1c2ccc([N+](=O)[O-])cc2nc2cc(OC)c(OC)cc12 (centres undefined) .
## Result yes

## Task GET /call?item= O=C(c1ccccc1)C(CN1CCCCC1)c1ccccc1 (centres undefined) returns the recorded outcome of this test.
## Result no

## Task Could you check what this test reported for `Cc1csc(/C=C/C(=O)c2nnn(-c3ccnc4c(C(F)(F)F)cccc34)c2C)c1` ?
## Result no

## Task Tell me the recorded outcome of this test for `CC(C)=CCC[C@](C)(O)[C@H]1CC[C@]2(C)[C@@H]1CC[C@@H]1[C@@]3(C)CC/C(=N/O)C(C)(C)[C@@H]3CC[C@]12C` .
## Result no

## Task Each compound tested received a call. Report the one for `CCOC(=O)c1cc2c(cc1Cl)SC(N(c1ccc(OC)cc1)S(=O)(=O)c1ccc(Cl)cc1)=NS2(=O)=O` .
## Result no

## Task So what was the verdict on `O=C1C=CC(=Nc2cc(Br)c(O)c(Br)c2)C=C1` in this test?
## Result no

## Task # fetch the recorded call for C[C@@]12CCC[C@@](C)(C(=O)O)C1CC[C@]13C[C@@](O)(CO)[C@](O)(CCC12)C3 (some centres undefined) here
## Result no

## Task I would be grateful if you could indicate the recorded call for `Oc1ccc(-c2nc3ccccc3s2)cc1CN(Cc1ccccn1)Cc1ccccn1` .
## Result no

## Task Each compound tested received a call. Report the one for `COC(=O)c1cc(O)c2cc3c(cc2c1-c1cc(OC)c(OC)c(OC)c1)OCO3` .
## Result no

## Task In this assay, the call recorded for `Clc1ccc(-c2c3c(nn2-c2ccccn2)CCc2ccccc2-3)cc1Cl` was what?
## Result no

* * *

Tested on: CAKI-1 renal
Assay: NCI tumour cell line growth inhibition, 48 h
Endpoint Name: TGI (µM)
Give the quantity in µM, number only.

CC(=O)Nc1ccc2c3c(cc(O)c2c1)N(C(=O)CCCCCCC(=O)N1CC(CCl)c2c1cc(O)c1cc(NC(C)=O)ccc21)CC3CCl (stereo not drawn) has a reported TGI of 0.894

Form field TGI, entry COC(O)C(=O)c1ccc2c(c1)CC1(C2)Cc2cc3c(cc2C1=O)CCC3 (stereo not drawn) : 31.2

TGI reported for this compound `Cc1nc2ccccc2c(/C=C/c2ccc(Cl)cc2)c1C(=O)/C=C/c1ccc(C(F)(F)F)cc1` : 1.52

# compound `C=C(CCC/C(C)=C/C=C/[C@@H](C)CCCc1ccoc1)C[C@@H]1OC(=O)[C@H](C)[C@@H]1O` ; its TGI = 20.1

* * *

System: NCI/ADR-RES ovarian
Experiment: NCI tumour cell line growth inhibition, 48 h
Consider the following molecules; for each one, report its TGI.

Please fill in: TGI reported for `O=C(COc1cc(O)c2c(=O)cc(-c3ccccc3)oc2c1)Nc1ccccc1C(F)(F)F` = 22.5 µM

Summary for this molecule, `CC(C)[C@H](NC(=O)[C@H](N)Cc1ccc(N(CCCl)CCCl)cc1)C(=O)O` : TGI is > 100 µM

TGI in this record for CC(=O)Nc1ccc2c3c(cc(O)c2c1)N(C(=O)CCCCCCC(=O)N1CC(CCl)c2c1cc(O)c1cc(NC(C)=O)ccc21)CC3CCl (stereo not drawn) : > 74.6 µM

Form field TGI, entry `Cn1c2c(c3ccc([N+](=O)[O-])cc3c1=O)C(=O)c1ccccc1-2` : > 100 µM

// field: TGI; key: COC(=O)c1cc(C(=CCC[C@H]2CC[C@@]3(C)C(CCC4C3CC[C@@]3(C)C4CC[C@@H]3C(C)CCCC(C)C)C2)c2cc(Cl)c(O)c(C(=O)OC)c2)cc(Cl)c1O (stereo partly drawn) ; value = > 10 µM

Form field TGI, entry COC1CC(COCc2ccccc2)CC(OC)O1 (stereo not drawn) : > 100 µM

The recorded TGI for entry Cc1ccc(O)c(C2=CC(c3cccc(Cl)c3)SC(N)=N2)c1 (stereo not drawn) equals > 100 µM

For this molecule ( `C/C1=C/C(=O)O[C@@H]2C[C@@H](CC[C@H](C)/C=C\C=C\CC1)O[C@@](O)([C@@H]1CSC(=O)N1)C2` ), measured TGI is > 10 µM

Values from PubChem BioAssay (NCI)
